Target: FAD-linked sulfhydryl oxidase ALR (Homo sapiens) (UniProt P55789)
Sequence (P55789 whole entry, looked up): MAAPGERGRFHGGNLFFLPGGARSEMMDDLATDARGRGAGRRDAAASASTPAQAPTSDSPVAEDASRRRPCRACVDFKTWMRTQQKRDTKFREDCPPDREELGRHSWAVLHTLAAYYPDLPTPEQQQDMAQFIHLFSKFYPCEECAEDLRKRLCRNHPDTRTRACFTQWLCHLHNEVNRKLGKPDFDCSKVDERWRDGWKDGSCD
Test: ALR-catalysed DTT oxidation blockers – biochemical, H2O2 detection, HRP-luminol luminescence, single point, primary screen (AID 485317)
Settings: purified ALR, stronger effect = higher value, concentration not given here
The whole screen tested about 290,000 compounds, of which about 11,000 (3.8%) were called active. Shown is part of a subset that was picked to be rich in actives.
parameterMeasured: inhibition (%)

INSERT INTO assay_data (molecule, obsvalue) VALUES
  ('CCN(C(=O)COC(=O)/C=C/c1nc2ccccc2s1)C1CCS(=O)(=O)C1 (stereo unspecified)', 94.6),
  ('Cc1cc(Nc2ccccc2)n(C(=O)c2ccc(N)cc2)n1', 28.5),
  ('CCN(C(=O)CSc1nc2ccccc2n1CC)C1CCS(=O)(=O)C1 (stereo unspecified)', 9.23),
  ('COc1ccc(S(=O)(=O)Nc2ccc3c(c2)OCO3)cc1Cl', 9.92),
  ('Cc1cc(Nc2ccccc2)n(CCC#N)n1', 98.6),
  ('CC(=O)NNc1cc(=O)c2c(=O)n(C)c(=O)n(C)c2[nH]1', 90.2),
  ('Nc1nc(SCC(=O)Nc2ccc(Cl)c([N+](=O)[O-])c2)n[nH]1', -3.76),
  ('O=C(CCCOc1ccccc1)NCc1ccco1', 86.9),
  ('Cc1cc(OCC(=O)N(C)c2c(N)n(Cc3ccccc3)c(=O)[nH]c2=O)c(C(C)C)cc1Cl', -4.09),
  ('Cc1cc(C(=O)CC#N)c(C)n1CC(F)(F)F', 94.8),
  ('Nc1nc(SCC(=O)NNc2c(Cl)cc(Cl)cc2Cl)n[nH]1', 95.6),
  ('Nc1nc(SCC(=O)NN(c2ccccc2)c2ccccc2)n[nH]1', 87.6),
  ('NC(=O)c1c(Nc2nc3c(F)cccc3s2)sc2c1CCCC2', 87.1),
  ('COc1cc2c(cc1/C=C1/NC(=O)N(c3ccccc3)C1=O)OCO2', -7.41),
  ('CCN(C(=O)COC(=O)Cc1c(F)cccc1Cl)c1c(N)n(Cc2ccccc2)c(=O)[nH]c1=O', -2.58),
  ('COc1ccc2c(c1)O/C(=C\c1ccccc1O)C2=O', 0.703);

---

Target: FAD-linked sulfhydryl oxidase ALR (Homo sapiens)
Assay: ALR-catalysed DTT oxidation blockers – biochemical, H2O2 detection, HRP-luminol luminescence, single point, primary screen (AID 485317)
Conditions: purified ALR, stronger effect = higher value, concentration not given here
The whole screen tested about 290,000 compounds, of which about 11,000 (3.8%) were called active. This is one part of a sample in which actives are shown more often than they occur.
Reported inhibition values are given for each entry in this list.
parameterMeasured: inhibition

INSERT INTO results (smilesdata, studytarget, obsvalue) VALUES
  ('NS(=O)(=O)c1ccc(NC(=S)NNC(=O)c2cccs2)cc1', 'FAD-linked sulfhydryl oxidase ALR (Homo sapiens)', '96.9% (active)'),
  ('CC1(C)O[C@@H]2[C@H](O1)[C@@H](CO)O[C@H]2n1c(N2CCCCC2)nc2c(N)ncnc21', 'FAD-linked sulfhydryl oxidase ALR (Homo sapiens)', '1.47% (inactive)'),
  ('COc1ccccc1NS(=O)(=O)c1ccc(C(=O)N2CCN(c3ccccc3O)CC2)cc1', 'FAD-linked sulfhydryl oxidase ALR (Homo sapiens)', '30.3% (inactive)'),
  ('Cc1ccc(-c2c3c(=O)n(C)c(=O)n(C)c3cn2-c2ccccc2O)cc1', 'FAD-linked sulfhydryl oxidase ALR (Homo sapiens)', '-5.8% (inactive)'),
  ('Cc1cc(-c2cccs2)nc(-n2cccc2)n1', 'FAD-linked sulfhydryl oxidase ALR (Homo sapiens)', '23.5% (inactive)'),
  ('N#Cc1c(-c2ccccc2)nc(SCc2ccc([N+](=O)[O-])cc2)[nH]c1=O', 'FAD-linked sulfhydryl oxidase ALR (Homo sapiens)', '99.5% (active)'),
  ('O=C(NNC(=O)c1cccc(S(=O)(=O)Nc2ccc(Cl)cc2)c1)c1ccc(=O)[nH]c1', 'FAD-linked sulfhydryl oxidase ALR (Homo sapiens)', '-5.3% (inactive)'),
  ('COc1c(F)c(F)c(C(=O)O)c(Nc2ccccc2C)c1F', 'FAD-linked sulfhydryl oxidase ALR (Homo sapiens)', '18.5% (inactive)'),
  ('CN(N)c1nc(N2CCCC2)nc(N2CCCC2)n1', 'FAD-linked sulfhydryl oxidase ALR (Homo sapiens)', '-6.99% (inactive)'),
  ('COc1ccccc1-c1nn(Cc2ccccc2)cc1C(=O)N1CCN(c2ncccn2)CC1', 'FAD-linked sulfhydryl oxidase ALR (Homo sapiens)', '1.87% (inactive)');
